The reported measurements were obtained from ChEMBL document CHEMBL5257040.

Assay: Lipophilicity, logP of the compound
Assay type: physicochemical
Conditions: octanol/water
value.kind: logP

Reported logP of "FC(F)(F)c1nccc2cc(Nc3n[nH]c4ncccc34)ccc12" : 3.78

====

Assay: Cmax in Sprague-Dawley rat at 3 mg/kg, po administered as spray-dried dispersion formulation and measured after 24 hrs by LC-MS/MS analysis
Format: ADME, organism-based
Parameters: time 24 hrs, dose 3 mg/kg, route po
Settings: in vivo
value.kind: Cmax (nM)
Answers are plain numbers, in nM.

Reported Cmax of "FC(F)(F)c1nccc2cc(Nc3n[nH]c4ncccc34)ccc12" : 630

====

Molecular target: Metabotropic glutamate receptor 2 (Rattus norvegicus, UniProt P31421)
Sequence (P31421 whole entry): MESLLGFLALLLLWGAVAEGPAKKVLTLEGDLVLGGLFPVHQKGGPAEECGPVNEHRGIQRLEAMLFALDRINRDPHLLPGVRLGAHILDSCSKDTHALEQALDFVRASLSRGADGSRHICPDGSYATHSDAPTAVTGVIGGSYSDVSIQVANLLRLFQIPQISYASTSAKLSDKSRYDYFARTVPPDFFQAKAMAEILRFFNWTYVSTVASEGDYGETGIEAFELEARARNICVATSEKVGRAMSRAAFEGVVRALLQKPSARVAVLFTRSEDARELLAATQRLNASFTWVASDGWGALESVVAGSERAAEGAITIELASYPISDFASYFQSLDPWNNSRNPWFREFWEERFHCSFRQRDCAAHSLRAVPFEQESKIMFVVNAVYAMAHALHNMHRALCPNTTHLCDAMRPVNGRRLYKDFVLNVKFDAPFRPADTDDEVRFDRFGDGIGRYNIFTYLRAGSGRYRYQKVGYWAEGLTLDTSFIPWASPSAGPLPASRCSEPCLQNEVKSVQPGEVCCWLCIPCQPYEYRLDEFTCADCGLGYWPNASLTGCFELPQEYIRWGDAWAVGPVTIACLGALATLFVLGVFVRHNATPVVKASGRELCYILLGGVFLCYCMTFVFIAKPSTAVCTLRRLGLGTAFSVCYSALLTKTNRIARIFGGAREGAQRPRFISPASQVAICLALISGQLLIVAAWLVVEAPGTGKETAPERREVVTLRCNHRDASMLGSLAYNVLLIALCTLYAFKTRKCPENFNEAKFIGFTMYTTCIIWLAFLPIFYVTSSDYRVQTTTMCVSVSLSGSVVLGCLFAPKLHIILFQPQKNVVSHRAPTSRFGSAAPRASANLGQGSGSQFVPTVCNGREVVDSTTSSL
Test: Positive allosteric modulator activity at rat mGlu2 in human HEK cells co-expressing […] assessed as increase in by thallium flux preincubated for 2.5 mins followed by gluatamate addition by thallium flux assay
value.kind: EC50

Reported EC50 of "FC(F)(F)c1nccc2cc(Nc3n[nH]c4ncccc34)ccc12" : > 10 µM

====

Target: P-gp (ABCB1) (Homo sapiens)
Sequence (P08183 whole entry): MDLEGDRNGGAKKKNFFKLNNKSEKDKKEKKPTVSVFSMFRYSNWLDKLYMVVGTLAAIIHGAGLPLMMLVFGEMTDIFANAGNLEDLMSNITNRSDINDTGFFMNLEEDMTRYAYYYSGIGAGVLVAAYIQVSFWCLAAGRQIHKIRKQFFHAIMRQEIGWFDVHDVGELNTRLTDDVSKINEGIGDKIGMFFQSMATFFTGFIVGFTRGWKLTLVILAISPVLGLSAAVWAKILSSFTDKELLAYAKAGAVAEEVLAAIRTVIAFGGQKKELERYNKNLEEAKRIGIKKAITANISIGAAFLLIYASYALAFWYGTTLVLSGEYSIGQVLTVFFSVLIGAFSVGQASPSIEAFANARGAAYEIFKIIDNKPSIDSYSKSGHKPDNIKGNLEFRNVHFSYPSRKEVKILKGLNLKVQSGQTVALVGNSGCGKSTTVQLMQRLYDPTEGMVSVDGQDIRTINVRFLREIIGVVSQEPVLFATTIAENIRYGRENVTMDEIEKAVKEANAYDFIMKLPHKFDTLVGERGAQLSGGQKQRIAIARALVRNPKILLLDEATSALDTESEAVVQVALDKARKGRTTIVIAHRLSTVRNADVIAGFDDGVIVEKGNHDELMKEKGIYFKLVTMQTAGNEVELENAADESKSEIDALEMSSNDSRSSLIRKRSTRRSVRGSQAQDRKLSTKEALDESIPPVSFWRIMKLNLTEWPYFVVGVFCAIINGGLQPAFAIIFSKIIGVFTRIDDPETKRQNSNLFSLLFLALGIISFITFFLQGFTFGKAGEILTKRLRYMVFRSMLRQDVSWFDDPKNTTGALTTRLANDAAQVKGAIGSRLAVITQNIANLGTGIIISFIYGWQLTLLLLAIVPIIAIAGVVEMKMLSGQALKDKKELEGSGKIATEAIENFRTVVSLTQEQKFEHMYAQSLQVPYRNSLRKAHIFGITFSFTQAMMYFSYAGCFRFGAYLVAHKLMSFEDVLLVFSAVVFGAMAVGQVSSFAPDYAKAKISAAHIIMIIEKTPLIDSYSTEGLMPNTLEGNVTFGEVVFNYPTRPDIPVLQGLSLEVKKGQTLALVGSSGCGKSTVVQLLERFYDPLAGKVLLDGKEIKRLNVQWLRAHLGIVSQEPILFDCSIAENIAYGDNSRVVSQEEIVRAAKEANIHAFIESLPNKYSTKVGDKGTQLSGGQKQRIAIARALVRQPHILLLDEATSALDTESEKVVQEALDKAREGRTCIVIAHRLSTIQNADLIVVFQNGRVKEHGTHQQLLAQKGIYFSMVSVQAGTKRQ
Assay: Substrate activity at human P-gp assessed as efflux ratio
Format: ADME
Settings: not told
value.kind: efflux ratio

Reported efflux ratio of "FC(F)(F)c1nccc2cc(Nc3n[nH]c4ncccc34)ccc12" : 1.3

====

Assay: Protein binding in rat plasma assessed as fraction unbound incubated for 4 hrs by equilibrium dialysis based LC/MS/MS analysis
Format: ADME, cell-free
value.kind: fraction unbound at 4 h
Answers are plain numbers.

Reported fraction unbound at 4 h of "FC(F)(F)c1nccc2cc(Nc3n[nH]c4ncccc34)ccc12" : 0.01

====

Biological target: Amine oxidase [flavin-containing] B (Homo sapiens, UniProt P27338)
Sequence (P27338 whole entry): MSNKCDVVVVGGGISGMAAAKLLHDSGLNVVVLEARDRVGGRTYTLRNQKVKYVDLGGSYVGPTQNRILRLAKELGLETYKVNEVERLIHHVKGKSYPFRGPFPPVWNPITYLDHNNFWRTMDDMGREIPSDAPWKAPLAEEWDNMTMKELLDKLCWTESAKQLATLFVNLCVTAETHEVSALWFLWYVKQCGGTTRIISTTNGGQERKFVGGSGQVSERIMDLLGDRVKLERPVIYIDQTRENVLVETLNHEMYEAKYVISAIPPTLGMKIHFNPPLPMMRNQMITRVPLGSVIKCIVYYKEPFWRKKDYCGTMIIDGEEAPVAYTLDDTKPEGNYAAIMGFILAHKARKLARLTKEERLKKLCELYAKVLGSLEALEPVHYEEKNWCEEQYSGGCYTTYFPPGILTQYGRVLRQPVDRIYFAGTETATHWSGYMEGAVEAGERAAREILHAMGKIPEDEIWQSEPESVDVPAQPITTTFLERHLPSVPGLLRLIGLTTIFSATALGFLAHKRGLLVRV
Experiment: Binding affinity to MAO-B (unknown origin)
pEC50: −log10 of the molar value.
value.kind: pEC50

Reported pEC50 of "FC(F)(F)c1nccc2cc(Nc3n[nH]c4ncccc34)ccc12" : < 4.52

====

Assay: Elimination half life in Beagle dog at 0.5 mg/kg, iv and measured upto 24 hrs by LC-MS/MS analysis
Assay type: ADME, organism-based, Canis lupus familiaris
Conditions: in vivo, read-out: beta t1/2 (converted)
value.kind: half-life (h)
Numbers only, in h.

Reported half-life of "FC(F)(F)c1nccc2cc(Nc3n[nH]c4ncccc34)ccc12" : 2.95

====

Assay: Clearance in Cynomolgus monkey plasma at 0.2 mg/kg, iv and measured upto 24 hrs by LC-MS/MS analysis
Assay type: ADME, organism-based, Macaca fascicularis
value.kind: clearance (mL/min/kg)
Give bare numbers, in mL/min/kg.

Reported clearance of "FC(F)(F)c1nccc2cc(Nc3n[nH]c4ncccc34)ccc12" : 17.1

====

Target: Nav1.5 (Homo sapiens, UniProt Q14524)
Experiment: Inhibition of Nav1.5 (unknown origin) at 10 uM
Format: toxicity
value.kind: inhibition at 10 µM

Nav1.5 (Homo sapiens, UniProt Q14524) assay, compound "FC(F)(F)c1nccc2cc(Nc3n[nH]c4ncccc34)ccc12" , recorded inhibition at 10 µM = < 50%

====

Target: hERG (KCNH2) (Homo sapiens)
Sequence (Q12809 whole entry): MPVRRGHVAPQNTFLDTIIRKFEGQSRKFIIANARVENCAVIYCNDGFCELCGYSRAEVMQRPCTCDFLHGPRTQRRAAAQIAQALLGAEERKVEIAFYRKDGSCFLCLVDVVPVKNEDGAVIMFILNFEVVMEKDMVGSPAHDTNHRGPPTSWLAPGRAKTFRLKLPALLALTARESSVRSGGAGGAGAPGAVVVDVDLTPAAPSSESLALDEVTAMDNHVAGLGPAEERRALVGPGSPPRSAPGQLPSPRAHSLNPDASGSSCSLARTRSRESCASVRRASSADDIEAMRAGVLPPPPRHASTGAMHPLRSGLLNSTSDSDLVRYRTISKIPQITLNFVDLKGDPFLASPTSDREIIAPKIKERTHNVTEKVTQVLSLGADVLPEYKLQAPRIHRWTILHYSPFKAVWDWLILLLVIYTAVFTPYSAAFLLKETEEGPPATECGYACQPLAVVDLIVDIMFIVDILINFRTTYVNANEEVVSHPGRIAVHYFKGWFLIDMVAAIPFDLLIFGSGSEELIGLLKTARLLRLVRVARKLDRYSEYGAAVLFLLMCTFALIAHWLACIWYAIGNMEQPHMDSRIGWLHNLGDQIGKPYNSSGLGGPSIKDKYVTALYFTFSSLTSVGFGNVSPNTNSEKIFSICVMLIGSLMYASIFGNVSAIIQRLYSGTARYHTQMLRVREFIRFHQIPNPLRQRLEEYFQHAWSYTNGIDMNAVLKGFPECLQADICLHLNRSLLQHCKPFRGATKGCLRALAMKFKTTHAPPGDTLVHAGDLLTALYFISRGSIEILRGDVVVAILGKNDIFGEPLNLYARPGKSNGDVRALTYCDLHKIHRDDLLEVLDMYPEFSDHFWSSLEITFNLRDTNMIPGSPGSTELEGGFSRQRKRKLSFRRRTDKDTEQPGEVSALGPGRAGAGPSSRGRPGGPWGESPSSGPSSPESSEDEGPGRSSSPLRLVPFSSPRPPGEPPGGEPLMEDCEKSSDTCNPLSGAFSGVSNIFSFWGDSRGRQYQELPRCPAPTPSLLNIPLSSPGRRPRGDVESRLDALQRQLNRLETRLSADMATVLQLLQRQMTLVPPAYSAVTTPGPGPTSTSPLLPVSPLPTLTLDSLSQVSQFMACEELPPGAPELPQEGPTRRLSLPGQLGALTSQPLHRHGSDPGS
Assay: Inhibition of human ERG at 10 uM
Assay type: toxicity
value.kind: inhibition at 10 µM

hERG (KCNH2) (Homo sapiens) assay, compound "FC(F)(F)c1nccc2cc(Nc3n[nH]c4ncccc34)ccc12" , recorded inhibition at 10 µM = < 50%

====

Experiment: Elimination half life in Sprague-Dawley rat at 0.2 mg/kg, iv and measured upto 24 hrs by LC-MS/MS analysis
Assay type: ADME, organism-based
Settings: in vivo, read-out: beta t1/2 (converted)
value.kind: half-life (h)
One number for each entry, in h.

Reported half-life of "FC(F)(F)c1nccc2cc(Nc3n[nH]c4ncccc34)ccc12" : 1.05
